Read-out: Decorin, DCN (gene 1634)
experimental-details: BSK_MyoF_Decorin: BioMAP Diversity Plus: MyoF Assay for Decorin Biomarker Activity (AID 2284265)
conditions-used: primary human lung fibroblasts
The source made the active and inactive calls. The calls were made as follows: active = hit-call score of the fitted dose curve at least 0.9, where 1 is the maximum; inactive = score below 0.9.
Please reply with one of these outcomes: active, inactive

Record excerpt, results attached:
molecule: Cc1ccc(N=Nc2c(O)ccc3ccccc23)c(C)c1
label-value: inactive

molecule: Clc1ccc(Nc2nnc(Cc3ccncc3)c3ccccc23)cc1
label-value: inactive

molecule: O=C(NO)c1ccccc1
label-value: inactive

molecule: Oc1cc2ccccc2cc1O
label-value: inactive

molecule: O=C1OC2(c3ccccc31)c1cc(I)c(O)c(I)c1Oc1c2cc(I)c(O)c1I
label-value: active

molecule: COc1cc(OC)nc(NC(=O)NS(=O)(=O)Nc2ccccc2C(=O)N(C)C)n1
label-value: inactive

molecule: O=S(=O)(O)C(F)(F)C(F)(F)C(F)(F)C(F)(F)C(F)(F)C(F)(F)C(F)(F)C(F)(F)C(F)(F)C(F)(F)F
label-value: inactive

molecule: OCCN1CN(CCO)CN(CCO)C1
label-value: inactive

In: For Cc1cccc2c1ccc1ccccc12 , what call appears in the results of this test?
Out: inactive

In: For O=C(O)CCC(F)(F)C(F)(F)C(F)(F)C(F)(F)C(F)(F)C(F)(F)F , what call appears in the results of this test?
Out: inactive

In: For NC(=NCCCCCCN=C(N)/N=C(\N)Nc1ccc(Cl)cc1)/N=C(\N)Nc1ccc(Cl)cc1 , what call appears in the results of this test?
Out: active

====

Read-out: Cytochrome P450 (CYP1A1), CYP1A1 (gene 1543)
experimental-details: LTEA_HepaRG_CYP1A1: Life Technologies and Expression Analysis (LTEA) Assay for Cytochrome P450 (CYP1A1) using HepaRG (AID 2283454)
conditions-used: mRNA level, 48 h; actives raise or lower the signal
The source made the active and inactive calls. How the source made its calls: active means hit-call score of the fitted dose curve at least 0.9, where 1 is the maximum; inactive means score below 0.9.
Please reply with one of these outcomes: active, inactive

Record excerpt, results attached:
compound: N=C(N)c1ccc(OCCCCCOc2ccc(C(=N)N)cc2)cc1
label-value: inactive

compound: O=C(CCCN1CCC(O)(c2ccc(Cl)cc2)CC1)c1ccc(F)cc1
label-value: active

compound: OCC(CO)(CBr)CBr
label-value: inactive

compound: CCC(C)c1ccccc1O (stereo not given)
label-value: active

Attention now shifts to the item below.
In: For CCCCCCCCCCCCOS(=O)(=O)O , what call appears in the results of this test?
Out: active

====

experimental-details: ATG_MRE_CIS: Attagene CIS-FACTORIAL HepG2 Assay for human Metal Responsive Element (MRE) (AID 2282954)
conditions-used: HepG2 MRE cis-reporter transcription, Attagene multiplex; actives raise or lower the signal
Activity calls are given as the source filed them. Rule for the calls: active = hit-call score of the fitted dose curve at least 0.9, where 1 is the maximum; inactive = score below 0.9.
Please reply with one of these outcomes: Yes for active, No for inactive

Record excerpt, results attached:
molecule: Brc1ccc(Oc2ccc(Br)cc2Br)cc1
label-value: No
--
molecule: CCCCCCCCCCCCCC[n+]1ccccc1
label-value: No
--
molecule: NNC(=O)CCCCC(=O)NN
label-value: No

In: For Nc1ccc(O)c(C(=O)O)c1 , what call appears in the results of this test?
Out: No

In: For CC(C)[C@@H]1CC[C@@H](C)C[C@H]1O , what call appears in the results of this test?
Out: No

In: For CC1CCC(CO)CC1 (stereo unspecified) , what call appears in the results of this test?
Out: No

In: For CCCCCCC(C)(C)C(=O)O , what call appears in the results of this test?
Out: No

In: For C=COC(=O)C(C)(C)CCCCCC , what call appears in the results of this test?
Out: No

In: For CC(C)CCOCCC(C)C , what call appears in the results of this test?
Out: No

In: For Nc1cc(Cl)c(-c2cc(Cl)c(N)cc2Cl)cc1Cl , what call appears in the results of this test?
Out: Yes

In: For Cc1ccc2ccc3ccc(C)cc3c2c1 , what call appears in the results of this test?
Out: No

In: For CCCCCCCCCCCC(=O)NCCCN(C)C , what call appears in the results of this test?
Out: Yes

In: For CCOC(=O)c1nc(C(Cl)(Cl)Cl)n(-c2ccc(Cl)cc2Cl)n1 , what call appears in the results of this test?
Out: Yes

In: For CCCCCCCCCCCC , what call appears in the results of this test?
Out: No

====

experimental-details: Tanguay_ZF_120hpf_AXIS_legacy: (Legacy) Oregon State University Tanguay Lab 120 Hour Post-fertilization zebrafish Assay for Body Axis Malformation (AID 2283635)
Results filed as inconclusive are left out. Calls of active or inactive are those of the source. The calls were made as follows: active = hit-call score of the fitted dose curve at least 0.9, where 1 is the maximum; inconclusive = response in the unintended direction; inactive = score below 0.9.
Please reply with one of these outcomes: y = active, n = inactive

Record excerpt, results attached:
compound: CN(C)CCOC(c1ccccc1)c1ccccc1
label-value: y
//
compound: CCCCC=O
label-value: n
//
compound: CCC(C)c1ccccc1O (stereo not drawn)
label-value: n
//
compound: OCC(CO)(CBr)CBr
label-value: n
//
compound: N=C(N)c1ccc(OCCCCCOc2ccc(C(=N)N)cc2)cc1
label-value: n

In: For CCCCCCCCCCCCOS(=O)(=O)O , what call appears in the results of this test?
Out: n

In: For CN(Cc1cnc2nc(N)nc(N)c2n1)c1ccc(C(=O)N[C@@H](CCC(=O)O)C(=O)O)cc1 , what call appears in the results of this test?
Out: n

In: For O=C(CCCN1CCC(O)(c2ccc(Cl)cc2)CC1)c1ccc(F)cc1 , what call appears in the results of this test?
Out: y

====

experimental-details: CCTE_Shafer_MEA_dev_per_burst_spike_percent: CCTE's Neural Network Formation Assay for Percent of Spikes in a Burst, Shafer Lab (AID 2284032)
The source made the active and inactive calls. How the source made its calls: active means hit-call score of the fitted dose curve at least 0.9, where 1 is the maximum; inactive means score below 0.9.
Please reply with one of these outcomes: yes (1) for active, no (0) for inactive

structure: O=C(CC(=O)C(F)(F)C(F)(F)C(F)(F)F)c1cccs1
label-value: yes (1)
--
structure: O=P(O)(O)CCC(F)(F)C(F)(F)C(F)(F)C(F)(F)C(F)(F)C(F)(F)C(F)(F)C(F)(F)F
label-value: yes (1)
--
structure: COC(=O)C(F)(F)C(F)(F)C(F)(F)F
label-value: no (0)

Attention now shifts to the item below.
In: For O=CC(F)(F)C(F)(F)C(F)(F)F , what call appears in the results of this test?
Out: no (0)

====

assayed-system: Cellular tumor antigen p53 (Homo sapiens) (UniProt P04637)
Sequence (P04637 whole entry, looked up): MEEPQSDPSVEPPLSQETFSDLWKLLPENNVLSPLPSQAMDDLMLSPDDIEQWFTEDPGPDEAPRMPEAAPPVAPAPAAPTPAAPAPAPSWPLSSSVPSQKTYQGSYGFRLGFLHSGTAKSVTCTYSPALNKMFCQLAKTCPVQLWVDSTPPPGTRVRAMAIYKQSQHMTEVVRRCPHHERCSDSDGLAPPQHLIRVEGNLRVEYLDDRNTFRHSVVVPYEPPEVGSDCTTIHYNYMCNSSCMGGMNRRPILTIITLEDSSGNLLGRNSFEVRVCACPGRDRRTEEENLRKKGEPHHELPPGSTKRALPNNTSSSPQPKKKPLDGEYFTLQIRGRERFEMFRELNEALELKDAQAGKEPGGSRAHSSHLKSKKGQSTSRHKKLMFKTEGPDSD
experimental-details: TOX21_p53_BLA_p3_ratio: Tox21 HCT-116 p53 Agonism Beta-lactamase Assay, Ratio, Phase 3 (AID 2283596)
Results filed as inconclusive are left out. Activity calls are given as the source filed them. The calls were made as follows: active = hit-call score of the fitted dose curve at least 0.9, where 1 is the maximum; inconclusive = response in the unintended direction; inactive = score below 0.9.
Please reply with one of these outcomes: Yes (active), No (inactive)

Record excerpt, results attached:
structure: NCc1cccc(CN)c1
label-value: No
--
structure: Clc1ccc(Nc2nnc(Cc3ccncc3)c3ccccc23)cc1
label-value: No
--
structure: O=C(Nc1ccc(Cl)c(Cl)c1)c1cc(Cl)cc(Cl)c1O
label-value: Yes
--
structure: CCCCCCC(C)(C)C(=O)O
label-value: No
--
structure: CC1=NN(c2ccccc2)C(=O)C1
label-value: No
--
structure: NNc1nc(-c2ccc([N+](=O)[O-])cc2)cs1
label-value: Yes

Attention now shifts to the item below.
In: For CC(C)(C)c1ccc(O)c(O)c1 , what call appears in the results of this test?
Out: No

====

experimental-details: APR_HepG2_StressKinase_24hr: Apredica 24-hour HepG2 Assay for Stress Kinase (AID 2282922)
conditions-used: HepG2 stress kinase (phospho-c-Jun) imaging, actives raise or lower the signal
The source made the active and inactive calls. Rule for the calls: active = hit-call score of the fitted dose curve at least 0.9, where 1 is the maximum; inactive = score below 0.9.
Please reply with one of these outcomes: Yes = active, No = inactive

compound: CN(Cc1cnc2nc(N)nc(N)c2n1)c1ccc(C(=O)N[C@@H](CCC(=O)O)C(=O)O)cc1
label-value: No
//
compound: CCCCCCCCCCCCOS(=O)(=O)O
label-value: No
//
compound: N=C(N)c1ccc(OCCCCCOc2ccc(C(=N)N)cc2)cc1
label-value: No

In: For CS(=O)(=O)c1ccc([C@@H](CC2CCCC2)C(=O)Nc2cnccn2)cc1Cl , what call appears in the results of this test?
Out: No

In: For OCC(CO)(CBr)CBr , what call appears in the results of this test?
Out: No

In: For CC(=O)Nc1ccc(O)cc1 , what call appears in the results of this test?
Out: No

In: For Cc1[nH]nc2c1N=C(c1ccccc1Cl)c1cc([N+](=O)[O-])ccc1N2 , what call appears in the results of this test?
Out: Yes

In: For CCCCC(CC)C(=O)O (centres undefined) , what call appears in the results of this test?
Out: No

In: For CCCCCCCCCCCCCCC , what call appears in the results of this test?
Out: No

Ref: PubChem BioAssay (EPA / NIEHS)
